target_system: type 2 5α-reductase (Homo sapiens)
Construct: Preparation of Human Prostatic and Scalp 5α-reductases; from tissue; host or cells: human prostate (crude nuclear pellet of the homogenate)
Sequence (P31213 1-254): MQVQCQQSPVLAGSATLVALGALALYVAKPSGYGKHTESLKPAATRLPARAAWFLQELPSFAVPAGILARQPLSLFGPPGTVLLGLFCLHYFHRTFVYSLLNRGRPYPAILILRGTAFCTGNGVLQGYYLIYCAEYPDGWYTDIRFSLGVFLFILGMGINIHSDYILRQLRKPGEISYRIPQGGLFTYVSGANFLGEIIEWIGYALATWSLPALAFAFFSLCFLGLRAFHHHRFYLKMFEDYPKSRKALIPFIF
method_notes: 5α-reductase assay, type 2 (human prostatic homogenate), inhibition studies
Assay type: biochemical
pIC50: −log10 of the molar value.
property_label: pIC50

smiles_input | result
CN1C(=O)C=C[C@]2(C)[C@H]3CC[C@]4(C)[C@@H](C(=O)Nc5cc(C(F)(F)F)ccc5C(F)(F)F)CC[C@H]4[C@@H]3CC[C@@H]12 | 7.70
CN1C(=O)C=C[C@]2(C)[C@H]3CC[C@]4(C)[C@@H](C(=O)Nc5ccccc5Cl)CC[C@H]4[C@@H]3CC[C@@H]12 | 8.00
CN1C(=O)C=C[C@]2(C)[C@H]3CC[C@]4(C)[C@@H](C(=O)Nc5ccccc5F)CC[C@H]4[C@@H]3CC[C@@H]12 | 7.22
CN1C(=O)C=C[C@]2(C)[C@H]3CC[C@]4(C)[C@@H](C(=O)Nc5ccc(Cl)cc5)CC[C@H]4[C@@H]3CC[C@@H]12 | 7.00
Cc1ccccc1NC(=O)[C@H]1CC[C@H]2[C@@H]3CC[C@H]4N(C)C(=O)C=C[C@]4(C)[C@H]3CC[C@]12C | 7.70
COc1ccccc1NC(=O)[C@H]1CC[C@H]2[C@@H]3CC[C@H]4N(C)C(=O)C=C[C@]4(C)[C@H]3CC[C@]12C | 7.00
CN1C(=O)C=C[C@]2(C)[C@H]3CC[C@]4(C)[C@@H](C(=O)Nc5ccccc5C(F)(F)F)CC[C@H]4[C@@H]3CC[C@@H]12 | 8.15

====

target_system: UniProtKB P10275
Sequence (P10275 whole entry): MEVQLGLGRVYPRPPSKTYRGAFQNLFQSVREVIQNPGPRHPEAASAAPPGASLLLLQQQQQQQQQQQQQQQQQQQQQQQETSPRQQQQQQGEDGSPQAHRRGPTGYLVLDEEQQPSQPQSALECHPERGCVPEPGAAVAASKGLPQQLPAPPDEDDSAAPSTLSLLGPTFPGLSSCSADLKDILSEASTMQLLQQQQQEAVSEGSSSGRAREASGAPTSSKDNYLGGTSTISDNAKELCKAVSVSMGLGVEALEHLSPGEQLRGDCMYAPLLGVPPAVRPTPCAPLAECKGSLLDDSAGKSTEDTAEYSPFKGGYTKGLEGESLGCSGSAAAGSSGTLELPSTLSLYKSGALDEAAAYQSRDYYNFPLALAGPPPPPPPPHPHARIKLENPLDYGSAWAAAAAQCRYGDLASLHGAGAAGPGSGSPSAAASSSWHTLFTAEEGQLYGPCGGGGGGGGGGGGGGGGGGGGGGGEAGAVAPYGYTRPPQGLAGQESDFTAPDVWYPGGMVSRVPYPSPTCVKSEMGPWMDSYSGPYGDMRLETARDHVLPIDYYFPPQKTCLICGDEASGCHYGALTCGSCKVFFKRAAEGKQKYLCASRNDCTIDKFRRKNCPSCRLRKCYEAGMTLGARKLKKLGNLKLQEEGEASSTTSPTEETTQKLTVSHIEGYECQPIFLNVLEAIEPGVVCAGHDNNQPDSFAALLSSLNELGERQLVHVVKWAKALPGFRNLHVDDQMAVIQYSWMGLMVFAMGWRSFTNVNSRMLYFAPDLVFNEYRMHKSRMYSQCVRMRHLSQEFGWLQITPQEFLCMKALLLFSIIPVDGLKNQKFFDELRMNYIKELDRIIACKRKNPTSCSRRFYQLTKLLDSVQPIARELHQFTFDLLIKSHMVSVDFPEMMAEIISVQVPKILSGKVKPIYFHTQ
method_notes: Human androgen receptor activity assay (anti-androgen activity, hAR)
Format: binding
Values of IC50 strictly less than 20 nM map to MET, and values of at least 20 nM map to NOT MET.

compound | assigned_category
CN1C(=O)C=C[C@]2(C)[C@H]3CC[C@]4(C)[C@@H](C(=O)Nc5ccccc5Cl)CC[C@H]4[C@@H]3CC[C@@H]12 [Example 6] | MET
Cc1ccccc1NC(=O)[C@H]1CC[C@H]2[C@@H]3CC[C@H]4N(C)C(=O)C=C[C@]4(C)[C@H]3CC[C@]12C [Example 5] | NOT MET
CN1C(=O)C=C[C@]2(C)[C@H]3CC[C@]4(C)[C@@H](C(=O)Nc5ccccc5C(F)(F)F)CC[C@H]4[C@@H]3CC[C@@H]12 [Example 4] | NOT MET
CN1C(=O)C=C[C@]2(C)[C@H]3CC[C@]4(C)[C@@H](C(=O)Nc5ccccc5F)CC[C@H]4[C@@H]3CC[C@@H]12 [Example 3] | MET
COc1ccccc1NC(=O)[C@H]1CC[C@H]2[C@@H]3CC[C@H]4N(C)C(=O)C=C[C@]4(C)[C@H]3CC[C@]12C [Example 2] | NOT MET
